- Tested on: MCF7 breast
- test_protocol: NCI tumour cell line growth inhibition, 48 h
Exercise: state measured GI50 for each of the compounds provided.

The compound identified as COC(=O)C(=O)CC(=O)CCn1ncc(Cl)c(Cl)c1=O registered its GI50 at 15.6 µM

The compound identified as COc1ccc(C(=S)N2CCN(c3cccc(Cl)c3)CC2)cc1 registered its GI50 at 75 µM

The compound identified as COc1ccc(NC(=O)Nc2n[nH]c3ccccc23)cc1 registered its GI50 at > 100 µM

The compound identified as O=C(Nc1cccc(-n2ccc3c(NC(=O)c4ccccc4)nccc32)c1)c1cccc(C(F)(F)F)c1 registered its GI50 at 0.0362 µM

The compound identified as COc1cccc(/C=C/C(=O)c2cc3c(N)c(C(=O)Nc4ccccc4C)sc3nc2C)c1 registered its GI50 at 1.29 µM

The compound identified as CCCCCCCCCC[C@@H](O)[C@H]1CC[C@H]([C@H]2CC[C@H]([C@H](O)CCCCCCCCCC[C@@H]3CC(CC(C)=O)C(=O)O3)O2)O1 (stereo not given in full) registered its GI50 at 1.85 µM

The compound identified as COC(=O)C1OC(O[C@H]2CCC3(C)C(CCC4(C)C3CC=C3C5CC(C)(C)CCC5(C(=O)O)CC[C@]34C)C2(C)C)C(O)C(OC2OC(CO)C(O)C(O)C2O)C1O (stereo not given in full) registered its GI50 at 9.92 µM

The compound identified as O=C(CSc1nc2ccc([N+](=O)[O-])cc2[nH]1)Nc1ccc(F)c(Cl)c1 registered its GI50 at 2.03 µM

The compound identified as Clc1ccccc1C(c1ccccc1)(c1ccccc1)n1ccnc1 registered its GI50 at 2.89 µM

The compound identified as CN(C)CC(=O)N1CCC(c2ccc(NC(=O)c3ncc(C#N)[nH]3)c(C3=CCCCC3)c2)CC1 registered its GI50 at 3.37 µM

The compound identified as Cc1ccn2c3c(c(C(=O)O)c2c1)C(=O)c1ccccc1C3=O registered its GI50 at 6.52 µM

The compound identified as Nc1n[nH]c2ccc([C@@H]3Nc4ccc5[nH]ncc5c4[C@H]4[C@H]5CCC(C5)[C@H]43)cc12 registered its GI50 at 0.363 µM

The compound identified as C=CC(=O)N[C@H]1C=C(C)c2c(-c3cnc4ccccc4c3)c3c(N)ncnc3n2C1 registered its GI50 at 21.1 µM

The compound identified as COc1ccc(C(=O)Nc2ncc(Cc3ccc(Cl)cc3)s2)cc1 registered its GI50 at 0.0385 µM

The compound identified as COc1cc(/C=C\[N+](=O)[O-])ccc1O registered its GI50 at 1.63 µM

Hello, the source for this data is PubChem BioAssay (NCI), in case you need it.
